biological target: fWW, fluorescently labelled H14 foldamer WW; test: fluorescence polarisation; direct FP: S100 protein diluted in 50 nM labeled foldamer, 20 mM HEPES pH 7.5, 150 mM NaCl, 1 mM CaCl2, 0.5 mM TCEP, 0.01% Tween20; quadratic fit (ProFit); detection threshold Kd 1 mM
Each item that follows carries a reported Kd.

Some binders with recorded Kd:
BINDER	Kd
S100A8 (natural protein) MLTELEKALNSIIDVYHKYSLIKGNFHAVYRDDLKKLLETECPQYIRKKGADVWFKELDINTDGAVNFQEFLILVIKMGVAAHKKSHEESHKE	> 1000 µM
S100A11 (natural protein) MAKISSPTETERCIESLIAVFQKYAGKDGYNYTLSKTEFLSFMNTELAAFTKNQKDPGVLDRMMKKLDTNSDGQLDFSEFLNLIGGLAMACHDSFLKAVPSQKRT	> 1000 µM
S100P (natural protein) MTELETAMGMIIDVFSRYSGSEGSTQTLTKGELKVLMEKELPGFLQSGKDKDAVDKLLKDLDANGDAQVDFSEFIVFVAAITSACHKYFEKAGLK	190 µM
S100A13 (natural protein) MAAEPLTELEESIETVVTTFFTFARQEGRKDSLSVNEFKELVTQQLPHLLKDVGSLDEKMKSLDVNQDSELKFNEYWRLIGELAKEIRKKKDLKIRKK	> 1000 µM
S100A12 (natural protein) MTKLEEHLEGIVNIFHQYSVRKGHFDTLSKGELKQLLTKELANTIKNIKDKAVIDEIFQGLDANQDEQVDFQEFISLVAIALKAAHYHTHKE	> 1000 µM

Name the reported Kd value associated with the binder S100A14 (natural protein) MGQCRSANAEDAQEFSDVERAIETLIKNFHQYSVEGGKETLTPSELRDLVTQQLPHLMPSNCGLEEKIANLGSCNDSKLEFRSFWELIGEAAKSVKLERPVRGH > 1000 µM

Name the reported Kd value associated with the binder S100B (natural protein) MSELEKAMVALIDVFHQYSGREGDKHKLKKSELKELINNELSHFLEEIKEQEVVDKVMETLDNDGDGECDFQEFMAFVAMVTTACHEFFEHE > 1000 µM

Name the reported Kd value associated with the binder S100A5 (natural protein) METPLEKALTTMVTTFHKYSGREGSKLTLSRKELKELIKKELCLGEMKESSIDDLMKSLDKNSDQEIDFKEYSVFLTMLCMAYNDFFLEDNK 77 µM

Name the reported Kd value associated with the binder S100Z (natural protein) MPTQLEMAMDTMIRIFHRYSGKERKRFKLSKGELKLLLQRELTEFLSCQKETQLVDKIVQDLDANKDNEVDFNEFVVMVAALTVACNDYFVEQLKKKGK > 1000 µM

meta.source: paper PMC8991199
